Values from PubChem BioAssay (NCI)

Provide the recorded TGI for the entries that follow.
System: HOP-92 NSCLC
Test: NCI tumour cell line growth inhibition, 48 h
Please reply with the bare figure in µM and do not write the unit itself.

Q. Recorded TGI of CC1C(c2ccc(F)cc2)c2cc3c(cc2OC1N1CCCC1)OCO3 (stereo unspecified) , please.
A. 45.7

Q. Subsequent entry: Cc1ccc(Nc2nc(NCCO)c3ccccc3n2)cc1C
A. 8.03

Q. Subsequent entry: CN(C)CCNC(=O)c1ccc(Nc2nc3ccccc3c3occc23)cc1
A. 9.84

Q. Subsequent entry: Nc1c(C(=O)Nc2ccccc2)sc2nc3c(cc12)CCCCCC3
A. 5.1

Q. Subsequent entry: CNc1ncnc(Sc2nc(N)nc3nc[nH]c23)c1[N+](=O)[O-]
A. 16.4

Q. Subsequent entry: O=[N+]([O-])c1ccc(N2CCN(Cc3ccccc3)CC2)c2c1no[n+]2[O-]
A. 2.36
